test: NCI Yeast Anticancer Drug Screen. Data for the CLN2oe strain (AID 163);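 further: 0% = growth of vehicle-only control cultures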; details: S. cerevisiae CLN2oe strain, at 33.0 µM, stronger effect = higher value
The panel holds about 79,000 compounds, 15% with a hit somewhere; the sample as a whole holds those more often.
# binning rule on growth inhibition: 0 = under 10%, 1 = from 10% up to 80%, 2 = 80% and over

[[record]]
compound = "C/C(CCl)=N/NC1=NC(c2ccccc2Cl)P(=O)(NCCCNP2(=O)SC(N/N=C(/C)CCl)=NC2c2ccccc2Cl)S1 (stereo unspecified)"
classification = 0

[[record]]
compound = "CC1=C(CO)C2=C(C)C3(CC3)[C@@](C)(O)C(=O)C2=C1"
classification = 0

[[record]]
compound = "COC(=O)C(F)C(Br)C(=O)OC (stereo unspecified)"
classification = 2

[[record]]
compound = "CS(=O)(=O)OCCN(CCOS(C)(=O)=O)c1ccc(C=O)cc1"
classification = 1

[[record]]
compound = "COc1ccc(/C=C(/C)[N+](=O)[O-])cc1"
classification = 1

[[record]]
compound = "O=C(c1ccccc1)C1C(c2ccccc2[N+](=O)[O-])N1C1CCCCC1 (stereo unspecified)"
classification = 1

[[record]]
compound = "OC1(c2ccccc2)CC2CCC(C1)N2CCCC(O)(c1ccccc1)c1ccccc1 (stereo unspecified)"
classification = 1

[[record]]
compound = "Oc1c(Br)cc(Br)cc1Br"
classification = 1

[[record]]
compound = "O=C(NNC(=O)OCC(Cl)(Cl)Cl)OCC(Cl)(Cl)Cl"
classification = 0

[[record]]
compound = "Cc1cc[n+](C2=C(Nc3cccc(C(F)(F)F)c3)C(=O)c3ccccc3C2=O)cc1"
classification = 0

[[record]]
compound = "Cc1ccc2c(c1)C1(C)c3cc(C)ccc3SP1S2 (stereo unspecified)"
classification = 1

[[record]]
compound = "O=C1C2CC(Cl)C(SSC3CC4C(=O)N(SC(Cl)(Cl)C(Cl)Cl)C(=O)C4CC3Cl)CC2C(=O)N1SC(Cl)(Cl)C(Cl)Cl (stereo unspecified)"
classification = 2

[[record]]
compound = "COc1cc(C2c3cc4c(cc3[C@@H](Nc3ccc(N)cc3)C3COC(=O)[C@H]23)OCO4)cc(OC)c1O (stereo partly specified)"
classification = 1

[[record]]
compound = "CCCCCCCCCC[Se]C#N"
classification = 0

[[record]]
compound = "O=c1oc2ccccc2c(O)c1C(c1ccc2c(c1)Cc1ccccc1-2)c1c(O)c2ccccc2oc1=O"
classification = 2

[[record]]
compound = "Oc1ccc(Cl)cc1Cc1ccccc1"
classification = 2

[[record]]
compound = "COC(=O)C1=C(C(=O)OC)C2OC1c1cc3ccccc3cc12"
classification = 2

[[record]]
compound = "COc1cc2ccccc2c2cc([N+](=O)[O-])oc12"
classification = 1

[[record]]
compound = "CC[C@@]1(O)C(=O)OCc2c1cc1n(c2=O)Cc2cc3ccccc3nc2-1"
classification = 2

[[record]]
compound = "COc1cc([C@@H]2c3cc4c(cc3C[C@@H]3COC(=O)C32)OCO4)cc(OC)c1O (stereo partly specified)"
classification = 1

[[record]]
compound = "Cc1c(N)nc([C@H](CC(N)=O)NC[C@H](N)C(N)=O)nc1C(=O)N[C@H](C(=O)N[C@H](C)[C@@H](O)[C@H](C)C(=O)N[C@H](C(=O)NCCc1nc(-c2nc(C(=O)NCCC[S+](C)C)cs2)cs1)[C@@H](C)O)C(OC1OC(CO)C(O)C(O)C1OC1OC(CO)C(O)C(OC(N)=O)C1O)c1cnc[nH]1 (stereo partly specified)"
classification = 1

[[record]]
compound = "O=C(O)C1C2C=CC(C2)C1c1ccccc1 (stereo unspecified)"
classification = 0

[[record]]
compound = "CC1CN=C(Nc2ccccc2)S1 (stereo unspecified)"
classification = 0

[[record]]
compound = "CC1(C)N=C(N)N=C(N)N1c1cccc(N)c1.[Sn]"
classification = 0

[[record]]
compound = "O=[N+]([O-])c1cc([As](Br)c2ccc(O)c([N+](=O)[O-])c2)ccc1O"
classification = 2

[[record]]
compound = "Oc1cccc2nc3ccccc3nc12"
classification = 0

[[record]]
compound = "CC[C@@]1(O)C(=O)OCc2c1cc1n(c2=O)Cc2cc3c(NC(=O)CN)cccc3nc2-1"
classification = 0

[[record]]
compound = "CNCC(O)c1ccc(O)c(O)c1.[Pt].c1ccc([PH+](c2ccccc2)c2ccccc2)cc1.c1ccc([PH+](c2ccccc2)c2ccccc2)cc1"
classification = 2

[[record]]
compound = "CC(=O)O/C(=C1\\C[C@H]2[C@@H]3CC=C4C[C@@H](OC(C)=O)CC[C@]4(C)[C@H]3CC[C@]2(C)C1=O)C(F)(F)F"
classification = 0

[[record]]
compound = "Cc1cccc(NC(=O)CBr)c1"
classification = 2

[[record]]
compound = "COc1cc(O)c2c(O)c3c(c4c2c1[C@]1(C4)C(C)=CCCC1(C)C)[C@H](O)[C@@]1(O)CC(=O)C(C(N)=O)=C(O)[C@@]1(O)C3=O"
classification = 2

[[record]]
compound = "Cn1cc(NC(=O)c2cc(NC(=O)CN=C(N)N)cn2C)cc1C(=O)NCCC(=N)N"
classification = 2

[[record]]
compound = "CC(Cc1ccccc1)N(C)Cc1nc(C2CCC([N+](=O)[O-])O2)no1 (stereo unspecified)"
classification = 1

[[record]]
compound = "Nc1nc(-c2ccccc2)c(-c2ccccc2)[se]1"
classification = 0

[[record]]
compound = "c1ccc2cc3n[se]nc3cc2c1"
classification = 1

[[record]]
compound = "CN(N=O)C(=O)NNC(=O)N(C)N=O"
classification = 1

[[record]]
compound = "OC(c1ccc(Br)cc1)C(Cl)(Cl)Cl (stereo unspecified)"
classification = 2

[[record]]
compound = "CCCCCCCCCCCCCCCCP(=O)(O)OCC(N)C(=O)O (stereo unspecified)"
classification = 0

